B1: CDC25A (parent)
chain: QLIDPDENKENEAFEFKKPVRPVS

# Variants of: B1
# EXPERIMENT_NOTES: protein stability index of a GFP-peptide fusion (GPS, HEK-293T) (PSI 1-6); higher = more stable;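 note: lentivirally expressed fusions sorted by FACS into six bins by GFP to DsRed ratio, PSI derived from sequencing read proportions per bin multiplied by bin number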
# EXPERIMENTAL_CONTEXT: c terminus: a fixed tail appended
Parameter threshold = 4. Response is yes when protein stability index meets or exceeds it, else no.

Is protein stability index for V23Y at or above 4?
no

Is protein stability index for A13G at or above 4?
no
